system_name: T1, huZIP12-ECD-GST (human, UniProt Q504Y0 24-202)
T1 construct: also called hZIP12-ECD-GST; human ZIP12-ECD-GST; not shown: glutathione S-transferase (GST) tag
experimental_protocol: SPR single cycle kinetics (Biacore): mAb captured on protein A, huZIP12-ECD-GST injected at 3.12-800 nM
recorded_metric: Kd (nM)
Numbers only, in nM.

binder	endpoint_value
H2_G66Q_L2 (antibody, V domains shown, Fc null human IgG1 / human kappa) VH: QVQLVESGGGVVQPGRSLRLSCAASGFTFSDYGMHWVRQAPGKGLEWVAYISSGGTTIYYADTVKQRFTISRDNSKNTLYLQMNSLRAEDTAVYYCARWTNLYAMDYWGQGTTVTVSS VL: DIVLTQSPDSLAVSLGERATINCRASKSVSTSGYSYMHWYQQKPGQPPKFLIYLASNKESGVPDRFSGSGSGTDFTLTISSLQAEDVAVYYCQHSREVPYTFGGGTKVEIKR	1.17

H3_M105P_VL-par (antibody, V domains shown, Fc null human IgG1 / human kappa) VH: QVQLVESGGGVVQPGRSLRLSCAASGFTFSDYGMHWVRQAPGKGLEWVAYISSGGTTIYYADTVKGRFTISRDNSKNTLYLQMNSLRAEDTAVYYCARWTNLYAPDYWGQGTTVTVSS VL: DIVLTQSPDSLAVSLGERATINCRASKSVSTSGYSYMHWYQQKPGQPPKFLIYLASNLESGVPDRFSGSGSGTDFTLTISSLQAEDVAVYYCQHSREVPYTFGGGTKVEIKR has a reported Kd of 1.63
